# Tested on: velvetleaf
# procedure_summary: Test A postemergence
# Type: in vivo, Abutilon theophrasti
# run_parameters: postemergence, 125 g ai/ha, about 10 days, visual rating on 0 to 100 scale (0 no effect, 100 complete control)
Velvetleaf plant response rating reference
quantity: Velvetleaf plant response rating

CCCc1cc(C(=O)Nc2ccc(F)cc2)nn1Cc1cc(C(F)(F)F)nn1C; 10
Cc1cc(C(=O)NC2CC2)nn1Cc1cccc(OC(F)(F)F)c1; 0
CCc1cc(C(=O)NC(C)C)nn1Cc1ccnc(C(F)(F)F)c1; 70
CCNC(=O)c1cc(C)n(Cc2cccc(OC(F)(F)F)c2)n1; 10
CCCCNC(=O)c1cc(CC)n(Oc2ccnc(C(F)(F)F)c2)n1; 30
CCNC(=O)c1cc(CCCl)n(Cc2ccnc(C(F)(F)F)c2)n1; 70
CCOc1cc(C(=O)NCC(F)(F)F)nn1Cc1ccnc(C(F)(F)F)c1; 90
CCCNC(=O)c1cc(C)n(Oc2ccnc(C(F)(F)F)c2)n1; 10
CCc1cc(C(=O)NC2CC2)nn1Cc1ccnc(OC(F)F)c1; 70
O=C(NC1CC1)c1cc(Cl)n(Cc2cccc(C(F)(F)F)c2)n1; 0
Cc1cc(C(=O)NCC(F)(F)F)nn1Cc1ccc(F)c(C(F)(F)F)c1; 40
CCNC(=O)c1cc(CC)n(Cc2ccnc(OC(F)F)c2)n1; 80
CCCc1cc(C(=O)NCC(F)(F)F)nn1Oc1ccnc(C(F)(F)F)c1; 0
CCCc1cc(C(=O)NCC)nn1Cc1cc(C(F)(F)F)nn1C; 90
